Numbers sourced from patent US20260201064A1.

Could you please report measured koff for the items listed next?
Target: T1, recombinant human ASM protein (human, UniProt P17405 47-630)
T1 construct: Recombinant human ASM in solution; also called acid sphingomyelinase (ASM) protein
T1 sequence: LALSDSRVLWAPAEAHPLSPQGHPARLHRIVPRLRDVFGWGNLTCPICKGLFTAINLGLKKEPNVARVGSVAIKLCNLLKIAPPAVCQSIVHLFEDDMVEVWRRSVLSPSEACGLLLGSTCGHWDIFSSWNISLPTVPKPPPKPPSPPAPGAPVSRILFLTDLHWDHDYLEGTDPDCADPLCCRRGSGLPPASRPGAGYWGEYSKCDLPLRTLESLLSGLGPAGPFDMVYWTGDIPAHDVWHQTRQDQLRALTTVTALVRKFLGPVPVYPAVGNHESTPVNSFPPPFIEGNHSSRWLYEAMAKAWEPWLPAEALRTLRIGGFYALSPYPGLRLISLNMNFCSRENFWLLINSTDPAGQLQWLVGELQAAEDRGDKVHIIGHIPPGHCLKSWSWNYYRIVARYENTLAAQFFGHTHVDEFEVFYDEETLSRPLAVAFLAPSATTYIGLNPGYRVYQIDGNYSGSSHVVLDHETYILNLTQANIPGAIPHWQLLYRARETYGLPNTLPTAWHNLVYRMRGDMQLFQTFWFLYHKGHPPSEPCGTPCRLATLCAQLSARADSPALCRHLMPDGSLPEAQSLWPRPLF
Assay: BLI (Octet), antibody on AHC sensor
Experimental: The binding affinity, to the ASM protein, of the produced antibodies specifically binding to the ASM protein and the interactive dynamics therebetween were measured using an Octet® QK384 system (Pall Life Sciences). First, an antibody specifically binding to the ASM protein produced in Example 1 was captured using an anti-human IgG Fc capture (AHC) biosensor, and 1.25, 2.5, 5, 10, or 20 nM recombinant human ASM protein solution was added thereto. […]
One number for each entry, in s⁻¹.

#9104v-L15 (antibody, human IgG4 S228P, lambda, V domains shown, Full-length IgG, lambda) VH: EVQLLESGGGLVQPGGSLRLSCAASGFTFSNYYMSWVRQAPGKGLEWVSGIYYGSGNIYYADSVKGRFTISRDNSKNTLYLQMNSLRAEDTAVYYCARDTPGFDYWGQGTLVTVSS VL: QSVLTQPPSASGTPGQRVTISCTGSSSNIGNNAVNWYQQLPGTAPKLLIYYDIHRPYGVPDRFSGSKSGTSASLAISGLRSEDEADYYCGAWDYSLSAYVFGGGTKLTVLG
0.000273
#9104v-L39 (antibody, human IgG4 S228P, lambda, V domains shown, Full-length IgG, lambda) VH: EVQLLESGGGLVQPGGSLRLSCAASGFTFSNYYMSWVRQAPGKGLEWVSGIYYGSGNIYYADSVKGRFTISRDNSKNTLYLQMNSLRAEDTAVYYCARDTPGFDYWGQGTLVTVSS VL: QSVLTQPPSASGTPGQRVTISCTGSSSNIGNNAVNWYQQLPGTAPKLLIYYDSYRPGGVPDRFSGSKSGTSASLAISGLRSEDEADYYCGAWDYSLSAYVFGGGTKLTVLG
0.000443
#9104v-L32 (antibody, human IgG4 S228P, lambda, V domains shown, Full-length IgG, lambda) VH: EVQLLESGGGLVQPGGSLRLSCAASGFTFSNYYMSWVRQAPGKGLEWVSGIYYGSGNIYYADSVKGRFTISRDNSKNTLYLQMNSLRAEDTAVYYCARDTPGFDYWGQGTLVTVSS VL: QSVLTQPPSASGTPGQRVTISCTGSSSNIGNNAVNWYQQLPGTAPKLLIYYDSYLPSGVPDRFSGSKSGTSASLAISGLRSEDEADYYCGAWDYSLSAYVFGGGTKLTVLG
0.000439

Take each entry in turn and give its koff.
1. #9104v-L38 (antibody, human IgG4 S228P, lambda, V domains shown, Full-length IgG, lambda) VH: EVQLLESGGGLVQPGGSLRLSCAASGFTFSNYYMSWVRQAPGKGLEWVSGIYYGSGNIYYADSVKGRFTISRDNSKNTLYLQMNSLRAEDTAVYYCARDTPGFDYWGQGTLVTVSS VL: QSVLTQPPSASGTPGQRVTISCTGSSSNIGNNAVNWYQQLPGTAPKLLIYYDSYRPFGVPDRFSGSKSGTSASLAISGLRSEDEADYYCGAWDYSLSAYVFGGGTKLTVLG
2. #9104 (antibody, V domains shown, Parental antibody; also called antibody #9104) VH: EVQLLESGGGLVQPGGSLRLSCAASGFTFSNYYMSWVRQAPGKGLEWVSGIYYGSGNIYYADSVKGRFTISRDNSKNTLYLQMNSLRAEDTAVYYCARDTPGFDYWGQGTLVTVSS VL: QSVLTQPPSASGTPGQRVTISCTGSSSNIGNNAVNWYQQLPGTAPKLLIYYDSHRPSGVPDRFSGSKSGTSASLAISGLRSEDEADYYCGAWDYSLSAYVFGGGTKLTVLG

1. 0.000343
2. 0.000873
